Measured melting point values are reported for all entries that follow.
Recorded endpoint: melting point

- Cc1ccc2c(C#N)c(-c3ccc(S(=O)(=O)NC(CF)CF)cn3)n(C3CCC3)c2c1F: 186 to 201 °C
- CCn1c(-c2ccc(N(CCO)S(=O)(=O)C3CC3)nc2)c(C#N)c2ccc(OC(C)C)cc21: 212 to 214 °C
- Cc1cc2c(cc1F)c(C#N)c(-c1ccc(S(=O)(=O)N[C@@H](C)C(F)(F)F)cn1)n2-c1nc(C#N)co1: 212.2 to 216.9 °C
- N#Cc1c(-c2ccc(S(=O)(=O)NC(CF)CF)cn2)n(C2CCC2)c2cc(C3CC3)c(F)cc12: 182 to 186 °C
- N#Cc1c(-c2ccc(S(=O)(=O)NC(CF)CF)cn2)n(C2CCC2)c2cc(C(F)F)ccc12: 217 to 222 °C
- CCc1cc2c(cc1F)c(C(N)=O)c(-c1ccc(NS(=O)(=O)C(C)(C)C)cn1)n2C1CCCCC1: 264 to 265 °C
- N#Cc1c(-c2ccc(S(=O)(=O)NC(CF)CF)cn2)n(C2CCCCC2)c2cc(OC(F)(F)F)ccc12: 146 to 148 °C

====

Measured melting point values are reported for all entries that follow.
Recorded endpoint: melting point

* CC(C)n1c(-c2ccc(NS(=O)(=O)C(C)(C)C)nc2)c(C#N)c2ccc(OC(F)F)cc21 | 263 to 264 °C
* C[C@H](NS(=O)(=O)c1ccc(-c2c(C#N)c3ccc(OC(F)(F)F)cc3n2CC2CC2)nc1)C1CC1 | 115 to 117 °C
* Cc1ccc2c(C#N)c(-c3ccc(S(=O)(=O)NC(C)(C)C(F)(F)F)cn3)n(C3CCC3)c2c1 | 222 to 227 °C
* C[C@H](NS(=O)(=O)c1ccc(-c2c(C#N)c3cc(F)c(Cl)cc3n2C2CCC2)nc1)C(F)(F)F | 203 to 206 °C
* CC(C)NS(=O)(=O)c1cnc(-c2c(C#N)c3cc(Cl)ccc3n2C2CCCC2)nc1 | 239 to 245 °C
* Cc1c(F)cc2c(C#N)c(-c3ccc(S(=O)(=O)NC(C)(C)C(F)(F)F)cn3)n(C3CCCC3)c2c1F | 226 to 232 °C
* C[C@@H](NS(=O)(=O)c1ccc(-c2c(C#N)c3ccc(Cl)cc3n2-c2ccccn2)nc1)C(F)(F)F | 198 to 199 °C
* Cc1ccc2c(C#N)c(-c3ccc(S(=O)(=O)NC4(C(F)(F)F)CC4)cn3)n(CC3CC3)c2c1 | 191 to 195 °C
* C[C@H](NS(=O)(=O)c1ccc(-c2c(C#N)c3ccc(CC(F)F)cc3n2C2CCC2)nc1)C1CC1 | 146 to 155 °C
* CCc1cc2c(cc1F)c(C#N)c(-c1ccc(S(=O)(=O)NC(C)(C)C)cn1)n2-c1ccccc1 | 175 to 180 °C
* CCc1cc2c(cc1F)c(C(N)=O)c(-c1ccc(S(=O)(=O)NC3(C(F)(F)F)CC3)cn1)n2-c1ncccn1 | 240 to 247 °C
* CCc1cc2c(cc1F)c(C(N)=O)c(-c1cnc(NS(=O)(=O)C(C)(C)C)nc1)n2C1CCCCC1 | > 300 °C
* Cc1cc2c(cc1F)c(C#N)c(-c1ccc(S(=O)(=O)NC(C)C)cn1)n2C1CCC1 | 222 to 226 °C
* COc1ccc(-n2c(-c3ncc(S(=O)(=O)NC(CF)CF)cn3)c(C#N)c3cc(F)ccc32)cc1 | 209 to 211 °C
* Cc1ccc2c(C#N)c(-c3ccc(S(=O)(=O)NC(C)(C)C(F)(F)F)cn3)n(C3CCCC3)c2c1F | 203 to 205 °C
